Reported Ki values are given for each entry in this list.
target: DC-SIGN CRD (Homo sapiens); construct: residues 205 to 404; TEV site (C); StreptagII (C); assay: 19F R2-filtered NMR reporter displacement assay transferred to DC-SIGN; conditions: 19F R2-filtered NMR, DC-SIGN CRD 50 μM, pH 7.0, 25° C.
Sequence (Q9NNX6 250-404): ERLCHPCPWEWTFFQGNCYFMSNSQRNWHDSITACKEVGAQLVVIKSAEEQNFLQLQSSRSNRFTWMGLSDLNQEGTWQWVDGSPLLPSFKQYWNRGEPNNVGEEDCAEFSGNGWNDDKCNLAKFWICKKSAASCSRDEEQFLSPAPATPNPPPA
assayReadout: Ki (µM)

{"columns": ["chemicalStructure", "assayReadout", "reportedMeasurement"],
 "data": [
  ["CC(=O)NCCO[C@H]1O[C@H](CO)[C@@H](O)[C@H](O)[C@@H]1O", "Ki", 2700],
  ["O=C[C@@H](O)[C@@H](O)[C@H](O)[C@H](O)CO", "Ki", 3000]
]}
